- assay_protocol: Nuclear factor erythroid 2-related factor 2/antioxidant responsive element (Nrf2/ARE) small molecule agonists: qHTS cell viability counter screen in human keratinocytes (AID 1919968); also: nearly all actives have a fitted effect of over 55% in size
- recorded_conditions: KeratinoSens HaCaT ARE cells viability, CellTiter-Fluor, 24 h; series mostly up to 92.4 µM
Inconclusive results are not listed. Activity calls are given as the source filed them. Calls follow the shape of the dose curve; as a rule, active = well fitted cell-killing curve with a large enough effect in the repeat runs; inconclusive = weak or mixed curves, or effect the other way; inactive = flat fitted curve, though single readings scatter.
Outcome codes: active, inactive

* C=C(C)C(=O)OCCOC1CC2CC1C1C=CCC21 (centres undefined) | inactive
* CC(C)(C)C(=O)CCc1ccc(Cl)cc1 | inactive
* CN(C)CCOc1ccc(/C(=C(/CCCl)c2ccccc2)c2ccccc2)cc1 | active
* O=C(CS)OCCOC(=O)CS | inactive
* C=Cc1ccc(C=C)cc1 | inactive
* c1ccc(-c2ccccn2)nc1 | inactive
* CCOC(=O)C1=C(C)NC(C)=C(C(=O)OCC)C1c1ccccc1/C=C/C(=O)OC(C)(C)C | active
* CCN(CCC#N)c1ccccc1 | inactive
* CCCC(=O)O[C@]1(C(=O)CO)CC[C@H]2[C@@H]3CCC4=CC(=O)CC[C@]4(C)[C@H]3[C@@H](O)C[C@@]21C | inactive
* CCOCN(C(=O)CS(=O)(=O)O)c1c(C)cccc1CC | inactive
* CC(C)COC(=O)COc1ccc(Cl)cc1Cl | inactive
* CC(C)c1ccccc1N | inactive
* CCOC(=O)c1ccc(C#Cc2ccc3c(c2)C(C)(C)CCS3)nc1 | inactive
* COC(=O)[C@@H]1CC2=CC(=O)CC[C@]2(C)[C@@]23O[C@@H]2C[C@@]2(C)[C@@H](CC[C@@]24CCC(=O)O4)[C@H]13 | inactive
* CCOc1ccc(O)cc1 | inactive
* O=C1c2ccccc2-c2ccccc21 | inactive
* O=CN(CCO)CCO | inactive
* CC(C)C(=O)OCCc1ccccc1 | inactive
* COc1ccc(C2CNC(=O)C2)cc1OC1CCCC1 (centres undefined) | inactive
* CC[C@H]1OC(=O)[C@H](C)[C@@H](O[C@H]2C[C@@](C)(OC)[C@@H](O)[C@H](C)O2)[C@H](C)[C@@H](O[C@@H]2O[C@H](C)C[C@H](N(C)C)[C@H]2O)[C@](C)(O)C[C@@H](C)/C(=N\OCOCCOC)[C@H](C)[C@@H](O)[C@]1(C)O | inactive
* CC(C)(CO)[C@@H](O)C(=O)NCCCO | inactive
* CC(C)C(O)(c1ccc(OC(F)(F)F)cc1)c1cncnc1 (centres undefined) | inactive
* O=C(O)Cc1cc(I)c(Oc2ccc(O)c(I)c2)c(I)c1 | inactive
* Cc1ccc(C(C)(C)C)c(O)c1 | inactive
* CCCCC(CC)COC(=O)COc1cc(Cl)c(Cl)cc1Cl (centres undefined) | inactive
* O=S(=O)(O)c1ccc(Nc2nc(Nc3ccc(/C=C/c4ccc(Nc5nc(Nc6ccc(S(=O)(=O)O)cc6)nc(N(CCO)CCO)n5)cc4S(=O)(=O)O)c(S(=O)(=O)O)c3)nc(N(CCO)CCO)n2)cc1 | inactive
* CNc1ncnc2nc[nH]c12 | inactive
* CCCCCCCCCCCCCC(=O)OC | inactive
* O=C(O)CCc1nc(-c2ccccc2)c(-c2ccccc2)o1 | inactive
* Brc1c(NC2=NCCN2)ccc2nccnc12 | inactive
* O=C(CS(=O)Cc1ccco1)NC/C=C\COc1cc(CN2CCCCC2)ccn1 (centres undefined) | inactive
* O=C(c1ccccc1)c1cc(Cl)ccc1O | inactive
* CCCCc1cc2ccccc2c(OCCN(C)C)n1 | inactive
* CCCCCCCCCCCCC1CO1 (centres undefined) | inactive
* CCOC(=O)CC(O)(CC(=O)OCC)C(=O)OCC | inactive
* CCCCCCC(=O)c1ccccc1 | inactive
* Cc1ccc([N+](=O)[O-])c(N)c1 | inactive
* C=C(C)C1CC=C(C)C(=O)C1 (centres undefined) | inactive
* CCOc1ccccc1OCC1CNCCO1 (centres undefined) | inactive
* ClC(Cl)(Cl)c1ccc(C(Cl)(Cl)Cl)cc1 | inactive
* Cc1c[nH]c(=S)[nH]c1=O | inactive
* CCOC(=O)COC(=O)c1cc(Oc2ccc(C(F)(F)F)cc2Cl)ccc1[N+](=O)[O-] | inactive
* COC(=O)c1ccc(C(=O)OC)c(C(=O)OC)c1 | inactive
* CO/N=C(/C(=O)N[C@@H]1C(=O)N2C(C(=O)[O-])=C(C[n+]3ccn4ncccc43)CS[C@H]12)c1nsc(N)n1 | inactive
* CC(Cc1ccccc1)(NC(=O)CN)c1ccccc1 (centres undefined) | inactive
* O=C(O)CN1C(=O)c2cccc3cccc(c23)C1=O | inactive
* NNC(=O)OCc1ccccc1 | inactive
* CCCCC(CC)COCCCN (centres undefined) | inactive
* C=C(C)C(=O)OCCOc1ccccc1 | inactive
